Where do these numbers come from? They come from PubChem BioAssay AID2060613.

Catalogue of viability, T/C readings, one per entry.
- System: 233499-124-R-J3-PDC complex spheroid viability;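 further: spheroids exposed to the drug combinations for seven days; percent viability relative to DMSO vehicle control wells taken as 100%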
- experimental protocol: Anticancer human tumor 233499-124-R-J3-PDC patient-derived colon adenocarcinoma cell line growth inhibition [CLK]
- details: second compound 0.0316 µM; first compound 1 µM; active compounds read low
- From the text: A high-throughput screen of multi-cell type tumor spheroids was designed to identify active combinations of […] and targeted small molecules. Complex spheroids include a stromal component modeled by human endothelial cells (HUVEC) and fibroblasts modeled by human mesenchymal stem cells (MSCs). […] Compounds. […] If the clinical Cmax for an agent had not been determined, the highest concentration tested was 10 microM. […]
Please reply with the bare figure in % and do not write the unit itself.

Take a look at these entries with their results.
compound="CC(=O)O[C@H]1C(=O)[C@@]2(C)[C@H]([C@H](OC(=O)c3ccccc3)[C@]3(O)C[C@H](OC(=O)[C@H](O)[C@@H](NC(=O)c4ccccc4)c4ccccc4)C(C)=C1C3(C)C)[C@]1(OC(C)=O)CO[C@@H]1C[C@@H]2O + CN1CCN(c2cc(C(=O)Nc3cc4cc(-c5cnn(C)c5)ccc4cn3)ccn2)CC1" test_target="233499-124-R-J3-PDC complex spheroid viability" recorded_metric="viability, T/C" result_value=14.2
compound="CCN1CCN(Cc2ccc(Nc3ncc(F)c(-c4cc(F)c5nc(C)n(C(C)C)c5c4)n3)nc2)CC1 + CN1CCN(c2cc(C(=O)Nc3cc4cc(-c5cnn(C)c5)ccc4cn3)ccn2)CC1" test_target="233499-124-R-J3-PDC complex spheroid viability" recorded_metric="viability, T/C" result_value=97.4

Which viability, T/C reading was recorded for the compound C=C(F)C(=O)N1CCN(c2nc(OCC3CCCN3C)nc3c2CCN(c2cccc4cccc(Cl)c24)C3)CC1CC#N (stereo not given) + CN1CCN(c2cc(C(=O)Nc3cc4cc(-c5cnn(C)c5)ccc4cn3)ccn2)CC1 ?
100

Would you kindly share the measured viability, T/C for Nc1ccn(C2OC(CO)C(O)C2(F)F)c(=O)n1 (stereo not given) + CN1CCN(c2cc(C(=O)Nc3cc4cc(-c5cnn(C)c5)ccc4cn3)ccn2)CC1 ?
34.2

Endpoint output: viability, T/C of CC(CO)NC(=O)c1cc(-c2ccc(Cl)cc2)nn(-c2cnn(C)c2)c1=O (stereo not given) + CNC(=O)c1ccc(Nc2nc(OC3CCCC3)c3c(-c4ccc5nc(C)oc5c4)c[nH]c3n2)c(OC)c1 . Value?
94.6

Quick one: viability, T/C for C=C(F)C(=O)N1CCN(c2nc(OCC3CCCN3C)nc3c2CCN(c2cccc4cccc(Cl)c24)C3)CC1CC#N (stereo not given) + CNC(=O)c1ccc(Nc2nc(OC3CCCC3)c3c(-c4ccc5nc(C)oc5c4)c[nH]c3n2)c(OC)c1 ?
89.6

// query viability, T/C value for entry COc1ccc([C@@H](O)c2cc(-c3ncnc4cc(N5CCOCC5)ccc34)c(F)cc2Cl)nn1 + CNC(=O)c1ccc(Nc2nc(OC3CCCC3)c3c(-c4ccc5nc(C)oc5c4)c[nH]c3n2)c(OC)c1
97
